Provenance of the data: paper PMC10675777

Conditions: rat, in vivo, iv, 6.25 mg/kg
endpoint: level at 1 h (ng/mL)

[[record]]
molecule = "CN[C@H](CC(C)C)C(=O)N[C@H]1C(=O)N[C@@H](CC(N)=O)C(=O)N[C@H]2C(=O)N[C@H]3C(=O)N[C@H](C(=O)N[C@H](C(=O)NCCNCc4ccccc4F)c4cc(O)cc(O)c4-c4cc3ccc4O)[C@H](O[C@H]3C[C@](C)(N)[C@@H](O)[C@H](C)O3)c3ccc(cc3)Oc3cc2cc(c3O[C@@H]2O[C@H](CO)[C@@H](O)[C@H](O)[C@H]2O[C@H]2C[C@](C)(N)[C@@H](O)[C@H](C)O2)Oc2ccc(cc2Cl)[C@H]1O [flavancin]"
test_result = 5000

